target: Neuronal acetylcholine receptor; alpha4/beta2 (Rattus norvegicus, UniProt P09483+P12390); test: Inhibition of [3H]epibatidine binding to alpha 4 beta 2 nicotinic acetylcholine receptor of rat cortex membranes
Sequence (P09483 whole entry): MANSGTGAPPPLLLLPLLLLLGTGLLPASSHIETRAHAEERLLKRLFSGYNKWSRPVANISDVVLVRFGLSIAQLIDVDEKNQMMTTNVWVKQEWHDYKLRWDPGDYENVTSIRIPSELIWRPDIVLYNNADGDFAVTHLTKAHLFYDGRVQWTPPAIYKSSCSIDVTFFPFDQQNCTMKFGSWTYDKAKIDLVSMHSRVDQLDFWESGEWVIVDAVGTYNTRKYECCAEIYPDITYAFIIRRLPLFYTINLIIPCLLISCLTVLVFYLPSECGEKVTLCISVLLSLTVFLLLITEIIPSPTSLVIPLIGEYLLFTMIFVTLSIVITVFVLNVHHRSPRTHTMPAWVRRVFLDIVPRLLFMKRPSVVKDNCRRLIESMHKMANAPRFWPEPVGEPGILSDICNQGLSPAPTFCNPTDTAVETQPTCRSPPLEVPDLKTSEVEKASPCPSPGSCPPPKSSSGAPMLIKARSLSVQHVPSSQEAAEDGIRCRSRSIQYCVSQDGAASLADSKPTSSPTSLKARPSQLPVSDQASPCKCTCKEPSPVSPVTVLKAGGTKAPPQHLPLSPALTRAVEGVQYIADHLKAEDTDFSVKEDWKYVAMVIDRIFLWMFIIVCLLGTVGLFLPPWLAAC
Sequence (P12390 whole entry): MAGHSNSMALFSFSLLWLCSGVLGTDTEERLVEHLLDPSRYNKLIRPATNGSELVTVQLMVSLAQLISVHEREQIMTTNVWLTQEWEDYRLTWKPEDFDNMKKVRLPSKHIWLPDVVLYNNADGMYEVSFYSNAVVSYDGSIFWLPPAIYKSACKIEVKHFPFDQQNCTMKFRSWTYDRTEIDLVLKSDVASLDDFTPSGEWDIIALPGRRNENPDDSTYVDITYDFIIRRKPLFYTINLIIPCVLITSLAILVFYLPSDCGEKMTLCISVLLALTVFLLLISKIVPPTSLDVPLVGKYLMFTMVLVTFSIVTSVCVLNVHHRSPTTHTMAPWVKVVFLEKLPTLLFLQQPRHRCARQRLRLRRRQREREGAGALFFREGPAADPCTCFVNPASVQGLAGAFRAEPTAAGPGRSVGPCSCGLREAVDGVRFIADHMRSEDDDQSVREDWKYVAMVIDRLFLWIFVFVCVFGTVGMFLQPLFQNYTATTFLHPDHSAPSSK
pKi: −log10 of the molar value.
Use 6 as the dividing line for pKi, with the line itself on the True side and lower values as False.

sample smiles	class
CC(C)O/N=C\[C@H]1CCCN1C	False
CC(C)=NO[C@H]1CCCN(C)C1	False
C/C=N\OC[C@H]1CCCN1C	False
CC(C)=NOC[C@@H]1CCCN1C	True
CC(C)O/N=C\[C@@H]1CCCN1C	False
CC(C)O/N=C/[C@H]1CCCN1C	False
Cc1cc([C@@H]2CCCN2C)on1	True
CC(C)=NO[C@@H]1CCCN(C)C1	False
